Method Summary: Self-diffusion NMR (SD-NMR) diffusion coefficients of the components of the AX-loaded medium
Type: physicochemical
Run Conditions: 0.5 wt % AX-loaded medium, water content 40 wt %
Endpoint: Diffusion coefficient

# input I would be grateful if you could share the reported Diffusion coefficient for CC1=C(/C=C/C(C)=C/C=C/C(C)=C/C=C/C=C(C)/C=C/C=C(C)/C=C/C2=C(C)C(=O)[C@@H](O)CC2(C)C)C(C)(C)C[C@H](O)C1=O [AX, astaxanthin] .
# output 3 × 10^−13 m^2/sec

# input Entry CC(O)CO (stereo not drawn) [PG, Propylene glycol] please
# output 1.23 × 10^−10 m^2/sec

# input Entry C=C(C)[C@H]1CC=C(C)CC1 [R-(+)-limonene, R-(+)-Limonene] please
# output 1.4 × 10^−12 m^2/sec

# input Entry CCO [EtOH, Ethanol] please
# output 1.2 × 10^−10 m^2/sec

# input Entry [2H]O[2H] [Formulation D2O, D2O] please
# output 1.3 × 10^−12 m^2/sec

# input Entry CCCCCCCC/C=C\CCCCCCCC(=O)OCCOCC(OCCO)C1OCC(OCCO)C1OCCO (stereo not drawn) [Tween 80, Polysorbate 80] please
# output 4 × 10^−13 m^2/sec
